- experimental.protocol: yeast display, Sf9 membrane polyspecificity reagent, FACS + sequencing; frameworks hold sequencing errors
test.readout: polyreactivity (PSR sort gate)

| entry.sequence | assay.result |
| --- | --- |
| QVQLLESGGGLVQPGGSLRLSCAASGSIFGLNAMGLYRQEPGKETELVAAISGGSTNYADSVKGRFTISRDNAKNTVYFQMISLKPEDTAVYYCAAPRTKYLSNYGFWGEGTQVTVSS | high polyreactivity |
| QVQLVESGGGLVQAGGSLRLSCAASGSIFLSNMGWYREAPGKQRELVAAITIGGSTDYADSVKGRFTISRDNAKNTVFLQMNSLKPEDTAVYYCNADNPYSDGADSLGNYWGHGTQVTVSS | low polyreactivity |
| QVQLVESGGGLVQAGGSLRLSCAASGSNFRVNAMGWYRQAPGKERELVAASSSGGSTHYADSVKGRFTISRDNAKNTFYLQMISLKPEDTAVYYCAVRYALGPYLWYYWGQGTQVTVSS | high polyreactivity |
| QVQLVESGGGLVQAGGSLRLSCAASGSIFSYNAMGWYRQAPGKERELVAAIDWSGGSTYYADSVKGRFTISRDNAKNTVYLQMNSLKPVDTAVYYCNAVGVFYYSYHYHQYDYWGQGTQVTVSS | low polyreactivity |
| QVQLVESGGGLVQAGGSLRLSCAASGLIFRYYAMGWYRQAPGKESELVAAITSGGGTYYADSVKGRFTISRDNAKNTVYLQMNSLKPEDTAFYYCAVGSYGHPKHRRNLDYWGQGTQVTVSS | low polyreactivity |
| QVQLVESGGGLVQAGRTLRLSCAASGFTFGRYAMGWYRQAPGKERELVAAISRNGGRTYYADSVKGRFTISRDNAMNTVYFQMNSLKPEDTAVYNCAADGYERKTAQYDYWGQGTQVTVSS | high polyreactivity |
| QVQLVESGGGLVQAGGSLRLSCAASGLTFSRYAMGWYRQAPGKERELVAAISRRGGITYYADSVKGRFTISRDNAKNTVYLQMNSLKPEDTAVYYCNKDYGGELDYWGQGTQVSVSS | high polyreactivity |
| QVQLVVSGGGLVQAGGSLRLSCAASGRIFVYNAMGWYRQAPGKERELVATITSGGSTYYADSVKGRFTISRDNAKNTVYLQMNSLKPEDTAVYYCAARRWYVHYFAYGYWGQGTQVTVSS | low polyreactivity |

Asked: // polyreactivity (PSR sort gate) lookup, key: QFQLVESGGGLVQAGGSLRLSCAASGSIFSVYTKGRYRQAPGKERELVAAISTGGGSTYYADSVKGRFTISRDNAKNTVYLQMNSLKPEDTALYYCATDYGWAPSYWYDSCGQGTQVTVSS
Given back: low polyreactivity

Asked: // polyreactivity (PSR sort gate) lookup, key: QVQLVESGGGLVHAGGSLRLSCAASGITYSRYAMGWYRQAPGKERELVAAITWDGGRTYYADTVKGRFTISRDIAKNTVYLQMNSVKPEDTAVYYCAAGSAWWYYWGQGTQVTVSS
Given back: high polyreactivity

Asked: // polyreactivity (PSR sort gate) lookup, key: QVQLVESGGGLVQAGGSLRLSCAASGFTFPRYAMGWYRQAPGKERELVAAISTSGDSTYYADSVKGRFTISRDNAKNTVYLQMNSLKPEDTAVYYCAARVVRGRYGYWGQGTQVTVSS
Given back: high polyreactivity

* * *

- experimental.protocol: yeast display, Sf9 membrane polyspecificity reagent, FACS + sequencing; frameworks hold sequencing errors
test.readout: polyreactivity (PSR sort gate)

| entry.sequence | polyreactivity (PSR sort gate) |
| --- | --- |
| QVQLVESGGGLVQAGGSLRLSCAASGRIFQFYAMGWYRQAPGKERELVASISASGARTYYADSVKGRFTISRDNAKNTVYLQMNSLNPEDTAVYYCNVVYFDGNPEDYEYWGKGTQVTVSS | high polyreactivity |
| QVQLVESGGGLDQAAGSLRLTCAASGTTFEYYAMGLYRQAPAKEREFVAAITGSGASTYYADSVKGRFTISRDNAKNTVYLQMNSLKPEDTAVYYCIALSALAVEDGYWGQGTQVTVSS | low polyreactivity |
| QVQLVESGGGLVQAGGSLRLSCAASGSIFTVNAMGWYRQAPGKEREFVAAITGGGTSTYYADSVKGRFTISRDNAKNTVYLQMNSLKPEDTAVYYCAATTYHYSPTYGYWGQGTQVTVSS | low polyreactivity |
| QVQLVESWGGLVQAGGSLRLSCAASGFTLTPYAMGWYRQAPGKERELVAASRWSGGSTYYADSVKGRFTISRDNAKNTVYLQMNSLKPEDTAVYYCAARYAYRPVNGYKYWGQGTQVTVSS | high polyreactivity |
| QVQLVESGGGLVQAGGSLRLSCAASGRTLSYYAMGWYRQAPGKEREFVAAITGSGGSTYYADSVKGRFTISRDNAKYTVYLQMNSLKPEDTAVYYCNAKGLGVFTVEYYYWGQGTQVTVSS | low polyreactivity |

Asked: // polyreactivity (PSR sort gate) lookup, key: QVQLVESGGGLVQAGGSLRLSCAASGRTFGQHAMGWYRQAPGKDRELVASIRSGGITDYADSVKGRFTISRDNAKNTVYLQMNSLKPEDTAVYYCNAEGVWWSTRYDSWGQGTQVTVSS
Given back: low polyreactivity

Asked: // polyreactivity (PSR sort gate) lookup, key: QVQLVESGGGLVQAGGSLRLSCAASGRTFQNYAMGWYRQAPGKERELVADITSGGSTYADSVKGRFTMSRDNAKNTVYLQMNSLKPEDTAVYYCNADRTYPEPAEYYYWGQGTQVTVSS
Given back: low polyreactivity

Asked: // polyreactivity (PSR sort gate) lookup, key: QVQLVESGGGLVQAGGSLRLSCAASGIIFAWYAMGWYRQAPGKERELVAAISGRGGRTYYADSVKGRFTISRDNAKNTVYLQMNSLKPEDTPVYYCNKDKSVIYDYWGQGTQVTVSS
Given back: high polyreactivity

Asked: // polyreactivity (PSR sort gate) lookup, key: QVQLVESGGGLVQAGGSLRLSWAASGSTFRLYAMGWYRQAPGKERELVAAITWSGGSTYYADSVKGRFTISRDNAKNTVYLQMNSLKPEDTAVYYCAAHRIGYYLRVSYRGKYDHWGQGTQVTVSS
Given back: low polyreactivity

Asked: // polyreactivity (PSR sort gate) lookup, key: QVQLVESGGGLVQAGGSLRLSCAASGFIFRYYAMGWYRQAPGKERELVARITPRGGRTYYADSVKGRFTISRDNAKNTVYLQMNSLKPEDTAVYYCAAVYPVLDEFGYWGQGTQVTVSS
Given back: high polyreactivity

Asked: // polyreactivity (PSR sort gate) lookup, key: QVQLVESGGGLVQAGGSLSLSCDASGFTFRYYFMGWYRQAPGKERELVAAISYTGRTTYYADSVKGRFTISRDNAKNTVYLQMNSLKPEDTAVYYCASGAIGYNGKAYGMDYWGQGTEVTVSS
Given back: high polyreactivity

* * *

- experimental.protocol: yeast display, Sf9 membrane polyspecificity reagent, FACS + sequencing; frameworks hold sequencing errors
test.readout: polyreactivity (PSR sort gate)

| entry.sequence | polyreactivity (PSR sort gate) |
| --- | --- |
| QVQLVESGGGLVQAGGSLRLSCAASGSTFYFNAMGWSRQAPGKERELVAAIDWSGGSTYYADSVKGRFTISRDNAKNTVYLQMNSLKPEDTAVYYCITVPNRARISTLYGYDYWGQGTQVTVSS | low polyreactivity |
| QVQLVESGGGLVQAGGSLRLSCAASGGTFGGYAMGWYRQAPGKERELVAVISQSGGTTYYADSVKGRFTISRDNAKNTVYLQMNSLKPEDTAVYYCNAYTYYKRFGYWGQGTQVTVSS | high polyreactivity |
| QVQLVESGGGLVQAGGSLRLSCAASGSTFVIYAMGWYRQAPGKERELVATITSGGSTYYADSVKGRFTISRDNAKNTVYLQMNSLKPEDTAVYYCAADDWGWPFYYYDDPMDYWGQGTQVTVSS | high polyreactivity |
| QVQLVESGGGLVQAGGSLRLSCAASGRTFLPNAMGWYRQAPGKERELVAAINWRGASTYYADSVKGRFTISRDNAKNTVYLQMNSLKPEDTAVYYCAVDSHYQSYYYRRYDYWGQGTQVTVSS | low polyreactivity |
| QVQLVESGGGLVQAGGSLRLSCAASGRNFYYYAMGWYRQAPGKEREFVARNRSSGGSTYADSVKGRFTISRDNAKNTVYLQMNSLKPEDTAVYYCARDGYTAVEYDYWGQGTQVTVSS | low polyreactivity |
| QVQLVESGGGLVQAGGSLRLSCAASGFTFDGYAMGWDRQAPGNERELVAAFSDSGDSTYYADSVKGRFTISRDNAKNTVYLQMNSLTPEDTAVYYCAAGLGYYWSDYFAYDSCGQGTQVTVSS | low polyreactivity |

Asked: // polyreactivity (PSR sort gate) lookup, key: QVQLVESGGGLVQAGGSLRLSCAASGSTFYGNAMVWYIQAPGKERELVAAIRWRGGRTYYADSVKGRFTNSRDNAKYTVYLKLNSLIPEDTAVYDCNALPGVSDTQYDRVGYWGQGTQVTVSS
Given back: high polyreactivity

Asked: // polyreactivity (PSR sort gate) lookup, key: QVQLVESGGGLVQAVGSLRLSCAASGFTFGEYDMGSYRHAPGKERELVAAIDSGGSTYYADSVKRRFTISRDNAKNTVYLQMNSLKPEDTALYYCNADSTYDYYELDYDHWGQGTQVTVSS
Given back: low polyreactivity
